difference of IC50 for PKA versus PKG listing for selected molecules.
assayed system: PKA (Homo sapiens)
assay info: PKA inhibition
Format: biochemical
details: PKA IC50 relative to PKG IC50

molecule: O=C(NC1CCCC1OC(=O)c1cc(O)c(C(=O)c2c(O)cccc2C(=O)O)c(O)c1)c1ccc(O)cc1 (stereo not shown) [Compound B-1, reference compound]
difference of IC50 for PKA versus PKG: 3 fold

### Prompt Reported difference of IC50 for PKA versus PKG, molecule O=C(NC1CNCC1OC(=O)c1cc(O)c(C(=O)c2c(O)cccc2C(=O)O)c(O)c1)c1ccc(O)cc1 (stereo not shown) [Compound B-2, reference compound] : ____
### Response 3 fold

----------
assayed system: PKA (Homo sapiens, UniProt P17612)
assay info: PKA inhibition
Type: biochemical
details: Table 6; read-out: PKA inhibition (IC50)
property name: IC50 (nM)
Write the answer as a number in nM, unit excluded.

### Prompt Reported IC50, compound O=C(N[C@@H]1CNC[C@H]1NC(=O)c1ccc2[nH]ncc2c1)c1ccc(O)cc1 : ____
### Response 70
